Would you kindly list pEC50 for each of these compounds?
# Test system: cyprids of barnacle B. amphitrite
# RUN DESCRIPTION: Anti-larval settlement bioassay (antifouling activity and larval toxicity)
# Format: in vivo
# PROTOCOL CONDITIONS: cyprids of B. amphitrite, 48 h at 28 °C, concentration where 50% of larvae were inhibited to settle vs negative control; read-out: EC50 (larval settlement inhibition)
# Protocol: The newly released nauplii were screened with the aperture of 90 μm. The newly released nauplii were raised in filtered seawater (FSW) at 28 °C with mild aeration and fed with Chaetoceros gracilis Schutt at 1 × 10^6 cells ml^−1. The nauplius larvae transformed into cyprids (ready to attach and metamorphose) after 3.5 days. […] The antifouling activity was evaluated as larval settlement inhibition against the cyprids of barnacle B. amphitrite using 24-well polystyrene plates (Nunc, Naperville, CA, USA). […]
Give only the number. pEC50 is defined as minus log10 of concentration in molar units.

Param item = CC(=O)OCCC1(C)C(C2=CC(OC(C)=O)C3CC(OC(C)=O)CCC3(C)C2=O)CCC1C(C)C=CCC(C)C (stereo not shown) ; retrieve measured pEC50.
4.92

Param item = CC(C)CCC(C)C1CCC(C2=CC(O)C3CC(O)CCC3(C)C2=O)C1(C)CCO (stereo not shown) ; retrieve measured pEC50.
4.97

Param item = CCCOc1cc(C)cc(Oc2cc(C)cc(O)c2)c1 ; retrieve measured pEC50.
5.01

Param item = CC(C)CC=CC(C)C1CCC(C2=CC(O)C3CC(O)CCC3(C)C2=O)C1(C)CCO (stereo not shown) ; retrieve measured pEC50.
4.83

Param item = CC(C)CCCC(C)C1CCC(C2=CC(O)C3CC(O)CCC3(C)C2=O)C1(C)CCO (stereo not shown) ; retrieve measured pEC50.
4.54

Param item = CC(=O)OCCC1(C)C(C2=CC(OC(C)=O)C3CC(O)CCC3(C)C2=O)CCC1C(C)C=CCC(C)C (stereo not shown) ; retrieve measured pEC50.
5.22

Param item = CC(C)C(C)C=CC(C)C1CCC(C2=CC(O)C3CC(O)CCC3(C)C2=O)C1(C)CCO (stereo not shown) ; retrieve measured pEC50.
4.35

Param item = COc1cc(O)cc2c1C(=O)c1c(cc3c(c1O)[C@H]1O[C@](C)(CC[C@@H]1O)O3)C2=O ; retrieve measured pEC50.
4.84

Param item = CC(C)C=CC(C)C1CCC(C2=CC(O)C3CC(O)CCC3(C)C2=O)C1(C)CCO (stereo not shown) ; retrieve measured pEC50.
4.52

Param item = CCCCCCCCn1sc(Cl)c(Cl)c1=O [Sea-Nine 211™, reference compound] ; retrieve measured pEC50.
5.36

Param item = C[C@]12CCC[C@H](O1)c1c(cc3c(c1O)C(=O)c1c(O)cc(O)cc1C3=O)O2 ; retrieve measured pEC50.
5.03

Param item = COC(=O)c1c(C)cc(Oc2cc(C)cc(O)c2)cc1O ; retrieve measured pEC50.
5.13

Param item = COc1cc(O)c(-c2c3c(c(O)c4c(OC)cc(O)cc24)C(=O)C=C(C)C3=O)c2cc3c(c(O)c12)C(=O)C[C@@](C)(O)C3 [compound 37, Asperinine A] ; retrieve measured pEC50.
4.52

###

Would you kindly list LC50/EC50 ratio (therapeutic ratio) for each of these compounds?
# System: cyprids of barnacle B. amphitrite
# RUN DESCRIPTION: Anti-larval settlement bioassay (antifouling activity and larval toxicity)
# Assay type: in vivo
# PROTOCOL CONDITIONS: B. amphitrite cyprids; ratio >15 considered non-toxic

Param item = COc1cc(C)cc(Oc2cc(C)cc(O)c2)c1 ; retrieve measured LC50/EC50 ratio (therapeutic ratio).
>6.61

Param item = Cc1cc(O)cc(Oc2cc(C)cc(OC(=O)c3ccccc3)c2)c1 ; retrieve measured LC50/EC50 ratio (therapeutic ratio).
>11.9

Param item = CCCCCOc1cc(C)cc(Oc2cc(C)cc(O)c2)c1 ; retrieve measured LC50/EC50 ratio (therapeutic ratio).
>5.99

Param item = CC1=C[C@@H]2/C=C(\C)CC[C@H](O)[C@H](O)[C@@H](O)CC(=O)[C@]23C(=O)N[C@@H](CC(C)C)[C@@H]3[C@@H]1C ; retrieve measured LC50/EC50 ratio (therapeutic ratio).
>3.70

Param item = COc1cc(O)cc2c1C(=O)c1c(cc3c(c1O)[C@H]1O[C@](C)(CC[C@@H]1O)O3)C2=O ; retrieve measured LC50/EC50 ratio (therapeutic ratio).
>8.75

Param item = COc1cc(C)cc(Oc2cc(C)cc(OC)c2O)c1O ; retrieve measured LC50/EC50 ratio (therapeutic ratio).
>9.35

Param item = CC(=O)OCCC1(C)C(C2=CC(OC(C)=O)C3CC(O)CCC3(C)C2=O)CCC1C(C)C=CCC(C)C (centres unmarked) ; retrieve measured LC50/EC50 ratio (therapeutic ratio).
16.1

Param item = Cc1cc(O)cc(Oc2cc(C)cc(O)c2)c1 ; retrieve measured LC50/EC50 ratio (therapeutic ratio).
>6.67
